Tested on: signalgrass (broadleaf signalgrass, Brachiaria platyphylla)
Assay: Test D pre-/postemergence plant response
Format: in vivo
Settings: Postemergence; 62 g ai/ha; scale 0 to 100 (0 no effect, 100 complete control)
MEASURED PARAMETER: Plant response rating, Signalgrass
API doc: respond with a numeric literal and nothing else, no unit.

Req: So what does the record say about Plant response rating, Signalgrass for O=C1CCCC(O)=C1C(=O)c1cnc(-c2cccnc2)n(-c2ccccc2)c1=O ?
Resp: 60

Req: Check O=C1CCCC(O)=C1C(=O)c1cnc(-c2cccs2)n(-c2ccccc2)c1=O too.
Resp: 30

Req: Continue with O=C1CCCC(O)=C1C(=O)c1cnc(-c2ccccc2)n(C2CCCCC2)c1=O
Resp: 35

Req: Now try CCCn1c(-c2ccccc2)ncc(C(=O)C2=C(O)C3CCC(C3)C2=O)c1=O (centres unmarked) .
Resp: 40

Req: Please give the result for Cc1c(F)cccc1-n1c(-c2ccccc2)ncc(C(=O)C2=C(O)CCCC2=O)c1=O too.
Resp: 15

---

So I've got a bunch of compounds here, and I need their Barnyardgrass plant response rating values.
System: barnyardgrass (Echinochloa crus-galli)
Assay: Test A pre-/postemergence plant response
Assay type: in vivo
Conditions: Postemergence, 500 g ai/ha; visual injury, 0 to 100 scale (0 no effect, 100 complete control), approx. ten days

Req: Dear colleague, I am looking for the recorded Barnyardgrass plant response rating of the following compound: O=C1CCCC(O)=C1C(=O)c1cnc(-c2ccccc2)n(C2CC[S+]([O-])CC2)c1=O (mixture of isomers)
Resp: 100

Req: Similarly, CCCCn1c(-c2cccc(C)c2)ncc(C(=O)C2=C(O)C3CCC(C3)C2=O)c1=O (centres unmarked) ?
Resp: 90

Req: Request: CCCn1c(-c2cccc(C)c2)ncc(C(=O)C2=C(O)CCCC2=O)c1=O
Resp: 90

Req: CCCCn1c(-c2ccccc2)ncc(C(=O)C2=C(O)C3CCC(C3)C2=O)c1=O (centres unmarked) , same question.
Resp: 100

Req: Queued: Cc1c(F)cccc1-n1c(-c2ccccc2)ncc(C(=O)C2=C(O)C3CCC(C3)C2=O)c1=O (centres unmarked)
Resp: 100

Req: For O=C(C1=C(O)C2CCC(C2)C1=O)c1cnc(-c2cc(F)cc(F)c2)n(-c2ccccc2)c1=O (centres unmarked) then?
Resp: 100

Req: Follow-up item: Cc1cccc(-c2ncc(C(=O)C3=C(O)CCCC3=O)c(=O)n2-c2cc(F)ccc2C)c1
Resp: 90

Req: Please give the result for CCCn1c(-c2ccc3c(c2)OCCO3)ncc(C(=O)C2=C(O)C3CCC(C3)C2=O)c1=O (centres unmarked) too.
Resp: 90

Req: Ok, now O=C1CCCC(O)=C1C(=O)c1cnc(-c2ccccc2)n(C2CCCCCCC2)c1=O
Resp: 100

Req: What would you report for Cc1ccccc1-n1c(-c2cccc(Br)c2)ncc(C(=O)C2=C(O)CCCC2=O)c1=O ?
Resp: 100

Req: What do you get for COCCCn1c(-c2cc(F)cc(F)c2)ncc(C(=O)C2=C(O)C3CCC(C3)C2=O)c1=O (centres unmarked) ?
Resp: 100

Req: Request: O=C1CCCC(O)=C1C(=O)c1cnc(-c2cc(F)cc(F)c2)n(CC2CCCO2)c1=O (centres unmarked)
Resp: 100

Req: Then what about the compound Cc1ccc(-n2c(-c3cc(F)cc(F)c3)ncc(C(=O)C3=C(O)CCCC3=O)c2=O)cc1 ?
Resp: 100

Req: Proceed to Cc1ccc(-n2c(-c3cccc(C)c3)ncc(C(=O)C3=C(O)CCCC3=O)c2=O)cc1
Resp: 100

---

Could you please report measured Plant response rating, Goosegrass for the items listed next?
Test system: goosegrass (Eleusine indica)
Assay: Test B pre-/postemergence plant response
Type: in vivo
Conditions: Postemergence, 125 g ai/ha; visual rating after 13 to 15 days, scale 0 (no effect) to 100 (complete control)
Hey, just send me the number, nothing else.

Req: // query Plant response rating, Goosegrass value for entry CCn1c(-c2ccccc2)ncc(C(=O)C2=C(O)CCCC2=O)c1=O
Resp: 70

Req: Field entry: O=C1CCCC(O)=C1C(=O)c1cnc(-c2ccc(Br)cc2)n(-c2ccccc2)c1=O
Resp: 85

Req: Could you do the same for CCCn1c(-c2ccccc2)ncc(C(=O)C2=C(O)CCCC2=O)c1=O , please?
Resp: 90

Req: Can you handle Cc1ccc(C)c(-n2c(-c3ccccc3)ncc(C(=O)C3=C(O)CCCC3=O)c2=O)c1 next?
Resp: 85

---

System: wheat (Triticum aestivum)
Experiment: Test B pre-/postemergence plant response
Assay type: in vivo
Conditions: Postemergence, 125 g ai/ha; visual rating after 13 to 15 days, scale 0 (no effect) to 100 (complete control)
Could you please mark Fulfilled for values of Plant response rating, Wheat below 5 and Not fulfilled for values at or above it?

Req: Is it true that Plant response rating, Wheat reported for CCn1c(-c2ccccc2)ncc(C(=O)C2=C(O)CCCC2=O)c1=O is less than 5?
Resp: Not fulfilled

Req: Do the same for Cc1cccc(-n2c(-c3ccccc3)ncc(C(=O)C3=C(O)CCCC3=O)c2=O)c1F please
Resp: Fulfilled

Req: Would you kindly repeat that for Cc1cccc(-n2c(-c3ccccc3)ncc(C(=O)C3=C(O)CCCC3=O)c2=O)c1C ?
Resp: Not fulfilled

Req: And then CCCc1ncc(C(=O)C2=C(O)CCCC2=O)c(=O)n1-c1cccc(C)c1 , what is it?
Resp: Not fulfilled

---

System: barnyardgrass (Echinochloa crus-galli)
Assay: Test A pre-/postemergence plant response
Type: in vivo
Settings: Preemergence, 125 g ai/ha; 0 to 100 scale, 0 = no effect, 100 = complete control
Provide the reported Plant response rating, Barnyardgrass of each item.
// response body must contain only the number

Req: Could you tell me which Plant response rating, Barnyardgrass is on file for CCOCCn1c(-c2cc(F)cc(F)c2)ncc(C(=O)C2=C(O)CCCC2=O)c1=O ?
Resp: 70

Req: Field entry: O=C1CCCC(O)=C1C(=O)c1cnc(-c2ccccc2)n(C2CCOCC2)c1=O
Resp: 30

Req: // next record Cc1ccc(F)cc1-n1c(-c2cccc(Br)c2)ncc(C(=O)C2=C(O)CCCC2=O)c1=O
Resp: 0

Req: Request: Cc1ccc(F)c(-n2c(-c3ccccc3)ncc(C(=O)C3=C(O)CCCC3=O)c2=O)c1
Resp: 10

Req: One more molecule: O=C1CCCC(O)=C1C(=O)c1cnc(-c2ccccc2)n(C2CC[S+]([O-])CC2)c1=O (mixture of isomers)
Resp: 0

Req: Now consider CCCn1c(-c2ccccc2F)ncc(C(=O)C2=C(O)CCCC2=O)c1=O and answer again.
Resp: 20

Req: Can you check CCCn1c(-c2ccsc2)ncc(C(=O)C2=C(O)CCCC2=O)c1=O next?
Resp: 80

Req: Please give the result for Cc1c(F)cccc1-n1c(-c2ccccc2)ncc(C(=O)C2=C(O)C3CCC(C3)C2=O)c1=O (centres unmarked) too.
Resp: 0

---

System: large crabgrass (Digitaria sanguinalis)
Experiment: Test A pre-/postemergence plant response
Format: in vivo
Conditions: Postemergence, 125 g ai/ha; 0 to 100 scale where 0 is no effect and 100 is complete control
Would you mind telling me the reported Plant response rating, Crabgrass, Large of each entry?

Req: Which Plant response rating, Crabgrass, Large value is on record for O=C1CCCC(O)=C1C(=O)c1cnc(-c2ccccc2)n(C2CC2)c1=O ?
Resp: 80

Req: Try Cc1ccc(F)cc1-n1c(-c2cccc(Br)c2)ncc(C(=O)C2=C(O)CCCC2=O)c1=O next.
Resp: 70

Req: Next entry: Cc1ccccc1-n1c(-c2cccc(Br)c2)ncc(C(=O)C2=C(O)CCCC2=O)c1=O
Resp: 50

Req: Try O=C1CCCC(O)=C1C(=O)c1cnc(-c2ccccc2)n(C2CCOCC2)c1=O next.
Resp: 90

Req: Same lookup for O=C1CCCC(O)=C1C(=O)c1cnc(-c2ccco2)n(C2CCCCC2)c1=O , please.
Resp: 80

Req: How about this molecule: CCCCn1c(-c2cccc(C)c2)ncc(C(=O)C2=C(O)C3CCC(C3)C2=O)c1=O (stereo not shown)
Resp: 20

Req: // next record CCCn1c(-c2ccc(OC)cc2)ncc(C(=O)C2=C(O)CCCC2=O)c1=O
Resp: 80

Req: How about O=C1CCCC(O)=C1C(=O)c1cnc(-c2ccsc2)n(C2CCOCC2)c1=O ?
Resp: 90

Req: Same for CCCn1c(-c2ccccc2F)ncc(C(=O)C2=C(O)CCCC2=O)c1=O
Resp: 90

Req: Next molecule: O=C1CCCC(O)=C1C(=O)c1cnc(C2CC2)n(-c2ccccc2)c1=O
Resp: 90

Req: One more molecule: CCn1c(-c2cccc(F)c2)ncc(C(=O)C2=C(O)C3CCC(C3)C2=O)c1=O (stereo not shown)
Resp: 80

Req: Same question for O=C1CCCC(O)=C1C(=O)c1cnc(-c2ccccc2)n(C2CCCCCC2)c1=O please.
Resp: 70

Req: For CCCn1c(C2CC2)ncc(C(=O)C2=C(O)CCCC2=O)c1=O then?
Resp: 90

This collection of values is drawn from patent US8952024B2.
